# Test system: HT-29 (CRC)
# TEST NAME: MTT cell viability assay, HT-29
# ASSAY CONTEXT: read-out: LC50; HT-29, 72 h
READOUT: CC50 (µM)

>>> df
                                   compound   u  quantitative_readout
0  C[Se]C(=O)CC1=C(C)/C(=C/c2ccc([S+](C)[O-])cc2)c2ccc(F)cc21 (stereo not shown)  µM                   6.3

* * *

The following compounds are shown together with reported GI50 values.
# System: HT-29 (CRC)
# TEST NAME: MTT cell viability assay, HT-29
# ASSAY CONTEXT: Homo sapiens, HT-29, 72 h
READOUT: GI50 (nM)

>>> print(df.to_string())
                                   compound   u  value_modifier  quantitative_readout
0  COc1ccc2c(c1)c(CC(=O)O)c(C)n2C(=O)c1ccc(Cl)cc1 [Inn, indomethacin, reference compound]  nM               >                 50000
1  COc1ccc2c(c1)c(CC(=O)[Se]C)c(C)n2C(=O)c1ccc(Cl)cc1 [Compound 5a]  nM               =                  2900
2   C[Se]C(=O)c1ccccc1OC(C)=O [Compound 1a]  nM               =                   200
3  CC1=C(CC(=O)O)c2cc(F)ccc2/C1=C\c1ccc([S+](C)[O-])cc1 (centres unmarked) [Sulin, sulindac, reference compound]  nM               >                 50000
4  CC(=O)Oc1ccccc1C(=O)O [ASA, aspirin, reference compound]  nM               >                 50000

* * *

# System: LC: EKVX
# TEST NAME: NCI-60 dose-response, EKVX
# Type: cell-based, human
# ASSAY CONTEXT: 48 h, read-out: LC50 (the source's name)
READOUT: CC50 (nM)

                                   compound  quantitative_readout
0  C[Se]C(=O)CC1=C(C)/C(=C/c2ccc([S+](C)[O-])cc2)c2ccc(F)cc21 (stereo not shown)                   861

* * *

# Test system: LC: HOP-62
# TEST NAME: NCI-60 dose-response, HOP-62
# Type: cell-based, human
# ASSAY CONTEXT: HOP-62, 48 h
READOUT: LC50 (nM)

                                   compound  quantitative_readout
0  C[Se]C(=O)CC1=C(C)/C(=C/c2ccc([S+](C)[O-])cc2)c2ccc(F)cc21 (stereo not shown)                   941

* * *

# System: DU-145 (prostate carcinoma)
# TEST NAME: MTT cell viability assay, DU-145
# ASSAY CONTEXT: Homo sapiens, DU-145, 48 h, read-out: cell viability
READOUT: viability at 5 µM

>>> df
                                   compound              subject_of_test  result
0  Cc1cccc(Nc2ccccc2C(=O)O)c1C [Mf, mefenamic acid, reference compound]  DU-145 (prostate carcinoma)    100%
1  COc1ccc2c(c1)c(CC(=O)[Se]C)c(C)n2C(=O)c1ccc(Cl)cc1  DU-145 (prostate carcinoma)   52.1%
2           C[Se]C(=O)c1ccccc1Nc1cccc(C)c1C  DU-145 (prostate carcinoma)     58%
3  CC(=O)Oc1ccccc1C(=O)O [ASA, aspirin, reference compound]  DU-145 (prostate carcinoma)   89.8%
4      COc1ccc2cc([C@H](C)C(=O)[Se]C)ccc2c1  DU-145 (prostate carcinoma)   56.2%
5        C[Se]C(=O)c1cc(-c2ccc(F)cc2F)ccc1O  DU-145 (prostate carcinoma)   53.9%
6                 C[Se]C(=O)c1ccccc1OC(C)=O  DU-145 (prostate carcinoma)   43.2%
7  CC1=C(CC(=O)O)c2cc(F)ccc2/C1=C\c1ccc([S+](C)[O-])cc1 (stereo not shown) [Sulin, sulindac, reference compound]  DU-145 (prostate carcinoma)   82.2%
8  COc1ccc2c(c1)c(CC(=O)O)c(C)n2C(=O)c1ccc(Cl)cc1 [Inn, indomethacin, reference compound]  DU-145 (prostate carcinoma)   89.6%
9  O=C(O)c1cc(-c2ccc(F)cc2F)ccc1O [Dfl, diflunisal, reference compound]  DU-145 (prostate carcinoma)     71%
